Observed AC50, system Melanocortin receptor 3 (Homo sapiens). Note: assay procedure not described here.

Compound | Study system | AC50
C=CCc1ccccc1OCC(O)CNC(C)C (stereo not given) [ALPRENOLOL] | Melanocortin receptor 3 (Homo sapiens) | > 30 µM
O=C(NCCN1CCOCC1)c1ccc(Cl)cc1 [MOCLOBEMIDE] | Melanocortin receptor 3 (Homo sapiens) | > 10 µM
CC[C@@H](C(N)=O)N1CCCC1=O | Melanocortin receptor 3 (Homo sapiens) | > 30 µM
CC(=O)O[C@H]1C[C@@H]2CC[C@@H]3[C@H](CC[C@@]4(C)[C@H]3C[C@H]([N+]3(C)CCCCC3)[C@@H]4OC(C)=O)[C@@]2(C)C[C@@H]1N1CCCCC1 [VECURONIUM] | Melanocortin receptor 3 (Homo sapiens) | > 30 µM
Nc1nc(NC2CC2)c2ncn([C@H]3C=C[C@@H](CO)C3)c2n1 [ABACAVIR] | Melanocortin receptor 3 (Homo sapiens) | > 30 µM

----------
Observed AC50, system Alpha-2B adrenergic receptor (Homo sapiens, UniProt P18089). Note: assay procedure not described here.

Compound | AC50
COc1ccc(CCN(C)CCCC(C#N)(c2cc(OC)c(OC)c(OC)c2)C(C)C)cc1OC (stereo not drawn) [GALLOPAMIL] | > 30 µM
CN1C(=O)C(O)N=C(c2ccccc2Cl)c2cc(Cl)ccc21 (stereo not drawn) [LORMETAZEPAM] | > 30 µM
COCCCN1CCC(NC(=O)c2cc(Cl)c(N)c3c2OCC3)CC1 [PRUCALOPRIDE] | > 30 µM
O=[N+]([O-])c1cn2c(n1)OC[C@@H](OCc1ccc(OC(F)(F)F)cc1)C2 [PRETOMANID] | > 10 µM
CN1CCC(=C2c3ccccc3CCc3sccc32)CC1 [PIZOTYLINE] | 0.51 µM
CN1C(C(=O)Nc2ccccn2)=C(O)c2sc(Cl)cc2S1(=O)=O [LORNOXICAM] | > 10 µM
NCC(=O)CCC(=O)O [AMINOLEVULINIC ACID] | > 30 µM
COc1cc2nc(N(C)CCCNC(=O)C3CCCO3)nc(N)c2cc1OC (stereo not drawn) [ALFUZOSIN] | 8.9 µM
C[C@]1(O)CC[C@H]2[C@@H]3CCC4=CC(=O)CC[C@]4(C)[C@@]3(F)[C@@H](O)C[C@@]21C [FLUOXYMESTERONE] | > 30 µM
O=[N+]([O-])O[C@@H]1CO[C@H]2[C@@H]1OC[C@@H]2O [ISOSORBIDE MONONITRATE] | > 10 µM
CC(C(=O)O)c1ccc(N2Cc3ccccc3C2=O)cc1 (stereo not drawn) [INDOPROFEN] | > 30 µM
CC(=O)NCCCS(=O)(=O)O [ACAMPROSATE] | > 30 µM
COc1ccccc1OCCNCC(O)c1ccc(C)c(S(N)(=O)=O)c1 (stereo not drawn) [AMOSULALOL] | 6.9 µM
CC(C[N+](C)(C)C)OC(N)=O (stereo not drawn) [BETHANECHOL] | > 10 µM
COc1cc2c(N)nc(N3CCN(C(=O)OCC(C)(C)O)CC3)nc2c(OC)c1OC [TRIMAZOSIN] | > 30 µM
C/C(O)=C(\C#N)C(=O)Nc1ccc(C(F)(F)F)cc1 [TERIFLUNOMIDE] | > 30 µM
CC(CC(c1ccccc1)c1ccccc1)NC(C)(C)C (stereo not drawn) [TERODILINE] | 16 µM
Nc1nc(NC2CC2)c2ncn([C@H]3C=C[C@@H](CO)C3)c2n1 [ABACAVIR] | > 30 µM

----------
- Study system: Cholecystokinin receptor type A (Homo sapiens); note: assay procedure not described here
- Sequence (P32238 whole entry): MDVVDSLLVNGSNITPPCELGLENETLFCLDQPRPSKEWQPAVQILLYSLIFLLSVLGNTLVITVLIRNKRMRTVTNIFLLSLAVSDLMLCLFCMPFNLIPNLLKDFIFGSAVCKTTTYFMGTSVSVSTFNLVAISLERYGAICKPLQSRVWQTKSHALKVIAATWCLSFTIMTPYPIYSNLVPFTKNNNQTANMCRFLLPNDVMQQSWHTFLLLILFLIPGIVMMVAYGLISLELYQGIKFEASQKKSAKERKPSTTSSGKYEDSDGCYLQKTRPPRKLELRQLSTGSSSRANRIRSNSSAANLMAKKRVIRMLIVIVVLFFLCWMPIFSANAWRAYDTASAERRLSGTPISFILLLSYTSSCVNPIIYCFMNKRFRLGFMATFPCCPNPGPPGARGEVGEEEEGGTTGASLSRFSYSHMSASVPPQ
Measurement kind: AC50

Compound | Assay result
CCCC1O[C@@H]2C[C@H]3[C@@H]4CCC5=CC(=O)C=C[C@]5(C)[C@H]4[C@@H](O)C[C@]3(C)[C@]2(C(=O)CO)O1 (stereo partly drawn) [BUDESONIDE] | > 10 µM
CO[C@H]1C[C@@H]2CC[C@@H](C)[C@@](O)(O2)C(=O)C(=O)N2CCCC[C@H]2C(=O)O[C@H]([C@H](C)C[C@@H]2CC[C@@H](O)[C@H](OC)C2)CC(=O)[C@H](C)/C=C(\C)[C@@H](O)[C@@H](OC)C(=O)[C@H](C)C[C@H](C)/C=C/C=C/C=C/1C | > 30 µM
C=CCN1CCCC1CNC(=O)c1cc(S(N)(=O)=O)cc(OC)c1OC (stereo not drawn) [VERALIPRIDE] | > 30 µM

----------
- Study system: Amine oxidase [flavin-containing] A (Homo sapiens, UniProt P21397); note: assay procedure not described here
- Sequence (P21397 whole entry): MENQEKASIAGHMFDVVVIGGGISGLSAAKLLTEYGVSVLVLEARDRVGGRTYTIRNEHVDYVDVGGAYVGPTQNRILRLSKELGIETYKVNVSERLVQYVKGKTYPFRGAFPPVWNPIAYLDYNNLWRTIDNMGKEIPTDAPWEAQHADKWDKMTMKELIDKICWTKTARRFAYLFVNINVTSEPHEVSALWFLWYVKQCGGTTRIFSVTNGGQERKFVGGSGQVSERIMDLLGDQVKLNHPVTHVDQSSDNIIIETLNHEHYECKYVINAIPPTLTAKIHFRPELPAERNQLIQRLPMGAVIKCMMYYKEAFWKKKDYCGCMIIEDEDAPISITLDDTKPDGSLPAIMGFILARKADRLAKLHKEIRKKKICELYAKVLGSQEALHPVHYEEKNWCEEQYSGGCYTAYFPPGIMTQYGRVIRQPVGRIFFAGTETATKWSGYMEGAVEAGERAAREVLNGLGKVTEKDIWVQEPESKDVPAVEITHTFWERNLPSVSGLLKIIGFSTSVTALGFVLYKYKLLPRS
- Type: functional
Listed molecules paired with reported AC50

Molecule | AC50
COc1cc2c(N)nc(N3CCN(C(=O)OCC(C)(C)O)CC3)nc2c(OC)c1OC | > 30 µM
O=C(O)[C@H](CC(=O)N1C[C@H]2CCCC[C@H]2C1)Cc1ccccc1 [MITIGLINIDE] | > 10 µM
NCC(CC(=O)O)c1ccc(Cl)cc1 (configuration not stated) | > 30 µM
CCCSc1ccc2nc(NC(=O)OC)[nH]c2c1 | > 10 µM
COC(=O)C1=C(C)NC(C)=C(C(=O)OC(C)(C)CN(C)CCC(c2ccccc2)c2ccccc2)C1c1cccc([N+](=O)[O-])c1 (configuration not stated) | > 30 µM
O=C1Nc2ccc(Cl)cc2[C@@](C#CC2CC2)(C(F)(F)F)O1 | > 30 µM
CS(=O)(=O)c1ccc(C2=C(c3ccccc3)C(=O)OC2)cc1 | > 10 µM
COc1ccccc1N1CCN(CCCNc2cc(=O)n(C)c(=O)n2C)CC1 | > 30 µM
Nc1nc(/C(=C/CC(=O)O)C(=O)N[C@@H]2C(=O)N3C(C(=O)O)=CCS[C@H]23)cs1 | > 30 µM
O=C(OCC(O)CO)c1ccccc1Nc1ccnc2cc(Cl)ccc12 (configuration not stated) | > 30 µM
C[C@@H]1O[C@@H](O[C@@H]2C=C3CC[C@@H]4[C@H](CC[C@]5(C)[C@@H](c6ccc(=O)oc6)CC[C@]45O)[C@@]3(C)CC2)[C@H](O)[C@H](O)[C@H]1O | > 30 µM
CC1=C(C(=O)O)N2C(=O)[C@@H](NC(=O)[C@H](N)c3ccccc3)[C@H]2SC1 [CEPHALEXIN ANHYDROUS] | > 10 µM
Cc1cc(C)c(NC(=O)CN(CC(=O)O)CC(=O)O)c(C)c1Br | > 30 µM
CC(CC(c1ccccc1)c1ccccc1)NC(C)(C)C (configuration not stated) | > 30 µM
CN(C)CCC=C1c2ccccc2C(C)(C)c2ccccc21 | > 30 µM
CC(CC1c2ccccc2CCc2ccccc21)CN(C)C (configuration not stated) | > 30 µM
CC(C)(C)NCC(O)COc1cccc2c1CCC(=O)N2 (configuration not stated) | > 10 µM
C[C@]12CCC(=O)C=C1CC[C@@H]1[C@@H]2[C@@H](O)C[C@@]2(C)[C@H]1CC[C@]2(O)C(=O)CO [HYDROCORTISONE] | > 10 µM
CO[C@@H]1[C@@H](O[C@@H]2O[C@H](C)[C@@H](O[C@H]3C[C@@](C)(O)[C@@H](OC(=O)CC(C)C)[C@H](C)O3)[C@H](N(C)C)[C@H]2O)[C@@H](CC=O)C[C@@H](C)[C@@H](O)/C=C/C=C/C[C@@H](C)OC(=O)C[C@H]1OC(C)=O | > 10 µM
CC(C)(C)C(=O)Oc1ccc(S(=O)(=O)Nc2ccccc2C(=O)NCC(=O)O)cc1 | > 30 µM
NC(=O)OCC(COC(N)=O)c1ccccc1 [FELBAMATE] | > 10 µM
c1ccc([C@H]2CN3CCSC3=N2)cc1 | > 30 µM

----------
Listed compounds paired with reported AC50
- Study system: Voltage-gated inwardly rectifying potassium channel KCNH2 (Homo sapiens, UniProt Q12809); note: assay procedure not described here
- Sequence (Q12809 whole entry): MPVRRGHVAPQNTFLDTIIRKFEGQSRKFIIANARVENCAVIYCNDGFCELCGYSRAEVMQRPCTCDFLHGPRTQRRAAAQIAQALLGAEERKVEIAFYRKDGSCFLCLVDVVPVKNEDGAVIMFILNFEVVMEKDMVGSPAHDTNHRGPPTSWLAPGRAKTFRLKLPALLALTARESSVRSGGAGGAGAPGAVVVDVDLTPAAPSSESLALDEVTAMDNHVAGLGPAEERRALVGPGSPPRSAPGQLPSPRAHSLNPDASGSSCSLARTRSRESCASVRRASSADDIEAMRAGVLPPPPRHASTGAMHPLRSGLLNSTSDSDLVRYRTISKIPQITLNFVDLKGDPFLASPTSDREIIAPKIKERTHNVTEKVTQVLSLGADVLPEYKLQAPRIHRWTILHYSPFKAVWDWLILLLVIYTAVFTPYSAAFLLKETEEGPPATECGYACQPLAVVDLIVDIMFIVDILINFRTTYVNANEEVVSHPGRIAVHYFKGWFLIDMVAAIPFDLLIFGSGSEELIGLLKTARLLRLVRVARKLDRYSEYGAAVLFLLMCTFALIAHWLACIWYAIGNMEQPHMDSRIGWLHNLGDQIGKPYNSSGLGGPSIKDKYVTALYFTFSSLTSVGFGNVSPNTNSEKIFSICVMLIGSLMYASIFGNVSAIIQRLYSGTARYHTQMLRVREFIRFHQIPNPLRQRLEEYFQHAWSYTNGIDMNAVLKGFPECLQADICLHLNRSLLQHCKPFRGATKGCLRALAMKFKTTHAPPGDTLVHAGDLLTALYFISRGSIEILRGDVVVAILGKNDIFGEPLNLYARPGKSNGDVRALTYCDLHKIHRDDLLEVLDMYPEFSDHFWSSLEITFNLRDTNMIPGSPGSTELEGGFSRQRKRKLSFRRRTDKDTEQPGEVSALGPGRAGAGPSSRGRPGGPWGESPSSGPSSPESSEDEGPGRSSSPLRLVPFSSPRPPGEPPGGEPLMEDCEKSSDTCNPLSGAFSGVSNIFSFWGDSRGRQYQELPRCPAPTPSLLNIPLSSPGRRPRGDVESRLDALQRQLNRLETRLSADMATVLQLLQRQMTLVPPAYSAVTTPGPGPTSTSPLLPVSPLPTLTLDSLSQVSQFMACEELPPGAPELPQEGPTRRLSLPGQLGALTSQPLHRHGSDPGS
- Type: functional
- Recorded conditions: read-out: AC50

Compound | Study system | AC50
CN(C)CCN1C(=O)c2ccccc2N(C)c2ccccc21 [DIBENZEPIN] | Voltage-gated inwardly rectifying potassium channel KCNH2 (Homo sapiens, UniProt Q12809) | > 30 µM
C=CCc1ccccc1OCC(O)CNC(C)C (stereo not given) [ALPRENOLOL] | Voltage-gated inwardly rectifying potassium channel KCNH2 (Homo sapiens, UniProt Q12809) | 9.1 µM
C=CCN1CCCC1CNC(=O)c1cc(S(N)(=O)=O)cc(OC)c1OC (stereo not given) [VERALIPRIDE] | Voltage-gated inwardly rectifying potassium channel KCNH2 (Homo sapiens, UniProt Q12809) | 7.6 µM
CC=CC(=O)N(CC)c1ccccc1C | Voltage-gated inwardly rectifying potassium channel KCNH2 (Homo sapiens, UniProt Q12809) | > 30 µM
CC(C)(C)NCC(O)COc1cccc2c1CCC(=O)N2 (stereo not given) [CARTEOLOL] | Voltage-gated inwardly rectifying potassium channel KCNH2 (Homo sapiens, UniProt Q12809) | > 30 µM
C=CCC1(C(C)CC)C(=O)NC(=O)NC1=O (stereo not given) [TALBUTAL] | Voltage-gated inwardly rectifying potassium channel KCNH2 (Homo sapiens, UniProt Q12809) | > 30 µM
CC(CC1c2ccccc2CCc2ccccc21)CN(C)C (stereo not given) [BUTRIPTYLINE] | Voltage-gated inwardly rectifying potassium channel KCNH2 (Homo sapiens, UniProt Q12809) | 2.1 µM
C[N+]1(CCCCC[N+]2(C)CCCC2)CCCC1 [PENTOLINIUM] | Voltage-gated inwardly rectifying potassium channel KCNH2 (Homo sapiens, UniProt Q12809) | > 30 µM
COC(=O)C1=C(C)NC(C)=C(C(=O)OC(C)(C)CN(C)CCC(c2ccccc2)c2ccccc2)C1c1cccc([N+](=O)[O-])c1 (stereo not given) [LERCANIDIPINE] | Voltage-gated inwardly rectifying potassium channel KCNH2 (Homo sapiens, UniProt Q12809) | > 30 µM
CC[C@@H](C(N)=O)N1CCCC1=O | Voltage-gated inwardly rectifying potassium channel KCNH2 (Homo sapiens, UniProt Q12809) | > 30 µM
CCCCOC(=O)C(=O)[C@H]1[C@H](C)C[C@H]2[C@@H]3C[C@H](F)C4=CC(=O)C=C[C@]4(C)[C@H]3[C@@H](O)C[C@@]21C [FLUOCORTIN BUTYL] | Voltage-gated inwardly rectifying potassium channel KCNH2 (Homo sapiens, UniProt Q12809) | 16 µM
CC(=O)O[C@H]1CC[C@@]2(C)C(=CC[C@@H]3[C@@H]2CC[C@]2(C)C(c4cccnc4)=CC[C@@H]32)C1 [ABIRATERONE ACETATE] | Voltage-gated inwardly rectifying potassium channel KCNH2 (Homo sapiens, UniProt Q12809) | > 30 µM
CC(=O)N[C@@H]1[C@@H](O)[C@H](O)[C@@H](CO)O[C@H]1O [N-ACETYLGLUCOSAMINE] | Voltage-gated inwardly rectifying potassium channel KCNH2 (Homo sapiens, UniProt Q12809) | > 30 µM
COc1ccccc1N1CCN(CCCNc2cc(=O)n(C)c(=O)n2C)CC1 | Voltage-gated inwardly rectifying potassium channel KCNH2 (Homo sapiens, UniProt Q12809) | > 30 µM
Clc1ccc(C(OCCN2CCCCC2)c2ccccc2)cc1 (stereo not given) [CLOPERASTINE] | Voltage-gated inwardly rectifying potassium channel KCNH2 (Homo sapiens, UniProt Q12809) | 0.2 µM
